# experimental_protocol: recombinant UMI read abundance after kanamycin selection (control-corrected) (log10(CPM+1)); higher = more efficient recombination; extreme values may be limits of the assay; sequences stand for … in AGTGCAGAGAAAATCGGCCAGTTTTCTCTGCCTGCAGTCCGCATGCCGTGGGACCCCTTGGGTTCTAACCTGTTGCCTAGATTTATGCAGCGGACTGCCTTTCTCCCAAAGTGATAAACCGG…AGGTTGGTTTCACT; site = the 11-nt donor;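 also: IS621 bridge recombinase in Escherichia coli cells against a fixed T5 target plasmid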
measure: recombinant UMI read abundance (log10)
# output: bare number, no unit

Note to self: recombinant UMI read abundance (log10) recorded for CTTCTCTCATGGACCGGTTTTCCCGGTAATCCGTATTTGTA (site CTTCTCTCTTT) was 0.676

Short answer for GACATACCATGGACCGGTTTTCCCGGTAATCCGTATTTGGT (site GACACACCTAC) : recombinant UMI read abundance (log10) was 0.01

sequence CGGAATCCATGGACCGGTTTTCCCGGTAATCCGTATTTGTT (site CGGAATCCTAC) , recombinant UMI read abundance (log10) observed: 0

recombinant UMI read abundance (log10) recorded for this sequence, CCATTATCATGGACCGGTTTTCCCGGTAATCCGTATTTGCT (site CGATCATCTAG) , is 0

recombinant UMI read abundance (log10) recorded for this sequence, TATATGGCATGGACCGGTTTTCCCGGTAATCCGTATTTGTG (site TATATGGCTCA) , is 0.368

What the record says about GGAGACTCATGGACCGGTTTTCCCGGTAATCCGTATTTGTG (site GGAGACTCTCA) : recombinant UMI read abundance (log10) is 1.74

// sample AGATAATCATGGACCGGTTTTCCCGGTAATCCGTATTTGTC (site AGATAATCTGA) , its recombinant UMI read abundance (log10) was 2.16

The value of recombinant UMI read abundance (log10) measured for the sequence GGCGTGGCATGGACCGGTTTTCCCGGTAATCCGTATTTGGT (site GGCGTGGCTAC) turned out to be 0.511

Query ATCTATACATGGACCGGTTTTCCCGGTAATCCGTATTTGAT (site ATCTATACTAT) yields recombinant UMI read abundance (log10) of 1.02
